# test.description: PSAC antagonists in infected red cells, primary screen, cell-based, P. falciparum Indochina, OD700, 1 h (AID 1154)
# conditions.used: P. falciparum Indochina infected RBC osmotic lysis, higher = more signal, called active from +8 up or from −8 down
measurement.kind: z-score
I only need the number, thanks.

compound: C=C[C@H](C)[C@@H](OC(=O)Nc1ccc(SC)cc1)c1ccc(OCCO)cc1
z-score: 28.3
--
compound: CCCCC(=C=CC[C@@H](O)c1ccc(OCCO)cc1)CCO
z-score: 6.76
--
compound: CCCCCCc1nc(Cc2cc(OC)c(OC)c(OC)c2)c(C)c2c1[Si](C(C)C)(C(C)C)OC2
z-score: 2.71
--
compound: COC(=O)[C@H](Cc1ccccc1)N1CC(C)(OC)O[C@@H](Cc2ccccc2)[C@H]1/C=C/C1CC1 (stereo partly drawn)
z-score: 1.92
--
compound: CC(C)c1ccc(NN2C(C(O)C(C)c3ccccc3)C=CC3C(=O)N(c4ccccc4)C(=O)C32)cc1 (stereo not drawn)
z-score: 0.187
--
compound: COCCCNC(=O)[C@]1(Cc2ccccc2CN=[N+]=[N-])N=C(c2ccc(OCCCO)cc2)O[C@@H]1c1ccccc1N=[N+]=[N-]
z-score: 33.7
--
compound: C[C@]1(C(=O)NCC(F)(F)F)c2ccccc2C(=O)N(Cc2cc(C(F)(F)F)cc(C(F)(F)F)c2)[C@H]1c1ccc(CO)cc1
z-score: 3.54
--
compound: C=CCOC(=O)[C@H]1[C@@H]2C(=O)O[C@@H](c3ccccc3)[C@@H](c3ccccc3)N2[C@@H](c2ccc(OCCOC(=O)[C@H]3C[C@H]4C(=O)NCC(=O)N4[C@H]3c3cccc(OCCO)c3)cc2)[C@]12C(=O)Nc1ccc(I)cc12
z-score: 5.17

Challenge: Param item = [N-]=[N+]=NCc1ccccc1C[C@]1(C(=O)N2CCCCC2)COC(c2ccc(OCCCO)cc2)=N1 ; retrieve measured z-score.
Response given: 29.2

Challenge: Param item = COC(=O)C1=CC(CCCO)=CC(c2ccc(CN3CCCC3)cc2)N(C)C=C1C(=O)OC (stereo not drawn) ; retrieve measured z-score.
Response given: 1.77
